Data provenance: patent US20160159862A1

# target system: α4β7 integrin on human cells (human, UniProt P13612 34-1032; P26010 20-798)
# assay: cell-based or functional assay
Bridge positions count the residues as written; N and C are the ends. Square brackets hold non-standard residues; d marks the D form. Ends that are not written are not given here. Phe(4-tBu) = CC(C)(C)c1ccc(C[C@H](N)C(=O)O)cc1; 1Nal = N[C@@H](Cc1cccc2ccccc12)C(=O)O; NMeR = CN[C@@H](CCCNC(=N)N)C(=O)O; β3hE = N[C@@H](CCC(=O)O)CC(=O)O; NMeK = CN[C@@H](CCCCN)C(=O)O; Pen = CC(C)(S)[C@H](N)C(=O)O; Dab = NCC[C@H](N)C(=O)O
endpoint name: α4β7 cell (Hu) IC50

Output measured α4β7 cell (Hu) IC50 for this item: Ac-[Pen][NMeR]SDTL[Pen]W[dE][Dab] (disulfide 1-7 (inferred); not fully specified (residue 10); printed as Ac-Pen-(N-Me-R)-S-D-T-L-Pen-W-e-Dab-Ac) [SEQ ID NO 64]
> 1000 nM

Output measured α4β7 cell (Hu) IC50 for this item: Ac-[Pen][NMeR]SDTL[Pen]H[dE][dK]-NH2 (disulfide 1-7 (inferred); also: homodimer via DIG) [SEQ ID NO 124]
> 100 nM

Output measured α4β7 cell (Hu) IC50 for this item: Ac-[Pen][NMeR]SDTL[Pen]WF[dK]-NH2 (disulfide 1-7 (inferred); also: homodimer linked by DIG) [SEQ ID NO 85]
≤ 10 nM

Output measured α4β7 cell (Hu) IC50 for this item: Ac-[Pen][NMeR]SDTL[Pen][1Nal][β3hE][NMeK]-NH2 (disulfide 1-7 (inferred); also: homodimer via DIG) [SEQ ID NO 142]
≤ 10 nM

Output measured α4β7 cell (Hu) IC50 for this item: Ac-[Pen][NMeR]SDTL[Pen]WQ[dK]-NH2 (disulfide 1-7 (inferred); also: homodimer linked by DIG) [SEQ ID NO 82]
> 50 nM

Output measured α4β7 cell (Hu) IC50 for this item: Ac-[Pen][NMeR]SDTL[Pen][Phe(4-tBu)][b‑H‑E][dK] (disulfide 1-7 (inferred); not fully specified (residue 10); also: oleoyl (oleoyl chloride) attached after k) [SEQ ID NO 174]
> 1000 nM

Output measured α4β7 cell (Hu) IC50 for this item: Ac-[Pen][NMeR]SDTL[Pen][Phe(2,4-Cl)][dE][dK]-NH2 (disulfide 1-7 (inferred); also: dimer via DIG) [SEQ ID NO 101]
> 50 nM

Output measured α4β7 cell (Hu) IC50 for this item: Ac-[Pen][NMeR]SDTL[Pen][Phe(4-tBu)][dE][dK]-NH2 (disulfide 1-7 (inferred); also: dimer via DIG) [SEQ ID NO 106]
≤ 10 nM
